Please consider the recorded MIC for K. pneumoniae ATCC13883 in what follows.
Note: unit µg/mL is implicit; provide only the numeric part.

Task: What value of MIC has been recorded for this entry: C[C@H](O)c1nccn1[C@@H](C#Cc1ccc(-c2ccc(OCC(C)(O)CO)cc2)cc1)CO (mixture of isomers) [Compound 16]
Result: 4

Task: Query C[C@H](O)c1nccn1[C@@H](C#Cc1ccc(-c2ccc(C3CC(NC4C(O)OC(CO)C(O)C4O)C3)cc2)cc1)CO (stereo partly shown) [Compound 39] next
Result: 32

Task: Query C[C@H](O)c1nccn1[C@@H](C#Cc1ccc(-c2ccc(C[C@@H]3COC[C@H]3O)cc2)cc1)CO [Compound 41] next
Result: 2

Task: Query C[C@H](O)c1nccn1[C@@H](C#Cc1ccc(-c2ccc(OCC(O)CCCO)cc2)cc1)CO (stereo partly shown) [Compound 23] next
Result: 2

Task: Query C[C@H](O)c1nccn1[C@@H](C#Cc1ccc(-c2ccc(O[C@H]3COC[C@@H]3O)cc2)cc1)CN (relative stereo) [Compound 24] next
Result: 4

Task: Query C[C@H](O)c1nccn1[C@@H](C#Cc1ccc(-c2ccc(C3CC(NCc4noc(C(N)=O)n4)C3)cc2)cc1)CO (stereo partly shown) [Compound 35] next
Result: 2

Task: Query C[C@H](O)c1nccn1CC#Cc1ccc(-c2ccc(O[C@@H]3COC[C@H]3O)cc2)cc1 [Compound 42] next
Result: 0.5

###

Target: P. aeruginosa LpxC (Pseudomonas aeruginosa, UniProt P47205)
Sequence (P47205 1-303): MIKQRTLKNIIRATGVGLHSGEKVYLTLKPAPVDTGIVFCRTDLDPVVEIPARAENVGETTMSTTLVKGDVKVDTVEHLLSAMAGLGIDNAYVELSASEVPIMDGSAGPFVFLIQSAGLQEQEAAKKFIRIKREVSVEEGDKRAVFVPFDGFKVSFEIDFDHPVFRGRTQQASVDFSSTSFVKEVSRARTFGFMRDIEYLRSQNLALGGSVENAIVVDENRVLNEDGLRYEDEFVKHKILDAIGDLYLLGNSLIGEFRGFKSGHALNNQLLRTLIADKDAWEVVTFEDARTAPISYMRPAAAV
Experiment: LpxC Binding Assay (Rapid Fire MS assay)
Classify: YES when IC50 is strictly less than 8 nM; NO when IC50 is not.

Task: API: query returns whether the compound falls strictly under 8 nM in IC50. Query: COCC(N)COc1ccc(-c2ccc(C#C[C@@H](CO)n3ccnc3[C@H](C)O)cc2)cc1 (mixture of isomers)
Result: NO

Task: Query C[C@H](O)c1nccn1[C@@H](C#Cc1ccc(-c2ccc(OCCC(O)CO)cc2)cc1)CO (mixture of isomers) next
Result: YES

Task: Query C[C@H](O)c1nccn1[C@@H](C#Cc1ccc(-c2ccc(OC[C@@H](O)CO)cc2)cc1)CO next
Result: NO

Task: Query C[C@H](O)c1nccn1[C@@H](C#Cc1ccc(-c2ccc(OCC(C)(O)CO)cc2)cc1)CO (mixture of isomers) next
Result: NO

Task: Query C[C@H](O)c1nccn1CC#Cc1ccc(-c2ccc(C3CC(NCCO)C3)cc2)cc1 (stereo partly shown) next
Result: NO

Task: Query COC[C@@H](O)COc1ccc(-c2ccc(C#C[C@@H](CO)n3ccnc3[C@H](C)O)cc2)cc1 next
Result: YES

###

Molecular target: P. aeruginosa LpxC (Pseudomonas aeruginosa)
Experiment: LpxC Binding Assay (Rapid Fire MS assay)
pIC50: −log10 of the molar value.
Short version: pIC50 at least 8 is rule met, less is rule not met.

Task: Textbook exercise: given the entry C[C@H](O)c1nccn1[C@@H](C#Cc1ccc(-c2ccc(O[C@H]3COC[C@@H]3O)cc2)cc1)CO (relative stereo) [Compound 10] , state whether its pIC50 is greater than or equal to 8.
Result: rule met

Task: Query C[C@H](O)c1nccn1[C@@H](C#Cc1ccc(-c2ccc(OCC3COCCO3)cc2)cc1)CO (mixture of isomers) [Compound 13] next
Result: rule met

Task: Query C[C@H](O)c1nccn1CC#Cc1ccc(-c2ccc(OCC(N)CO)cc2)cc1 (mixture of isomers) [Compound 7] next
Result: rule not met
